Molecular target: human MC3R (human, UniProt P41968 1-323)
Sequence (P41968 whole entry): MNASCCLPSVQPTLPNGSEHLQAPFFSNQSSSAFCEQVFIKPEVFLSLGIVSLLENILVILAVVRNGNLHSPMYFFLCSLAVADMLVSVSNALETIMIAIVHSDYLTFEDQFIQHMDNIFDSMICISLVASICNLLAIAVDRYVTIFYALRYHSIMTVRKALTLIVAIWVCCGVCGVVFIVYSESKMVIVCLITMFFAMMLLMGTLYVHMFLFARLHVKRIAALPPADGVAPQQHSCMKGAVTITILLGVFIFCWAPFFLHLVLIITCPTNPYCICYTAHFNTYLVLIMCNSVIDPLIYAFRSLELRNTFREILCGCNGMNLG
Assay: cell-based or functional assay
Positions of bridges follow the written chain, without caps; N, C: chain ends. Non-standard residues stand in square brackets, D forms with d. d(αMeF) = C[C@@](N)(Cc1ccccc1)C(=O)O; 4Pal = N[C@@H](Cc1ccncc1)C(=O)O; Cit = NC(=O)NCCC[C@H](N)C(=O)O; Nle = CCCC[C@H](N)C(=O)O; Orn = NCCC[C@H](N)C(=O)O; Aib = CC(C)(N)C(=O)O
Exercise: state measured % max activation for each of the binders provided.
Numeric answer only, unit % assumed.

Please give the measured % max activation for this binder: Ac-RC[Aib][Cit][dF]R[dW]C-NH2 (disulfide 2-8) [CTX-1290]
20

Please give the measured % max activation for this binder: Ac-RC[Aib]R[dF][Cit]WC-NH2 (disulfide 2-8) [CTX-1270]
14

Please give the measured % max activation for this binder: Ac-RCA[Cit][dF]RWC-NH2 (disulfide 2-8) [CTX-1287]
43

Please give the measured % max activation for this binder: Ac-C[Aib]R[dF]RFC-NH2 (disulfide 1-7; SMILES CC(=O)N[C@H]1CSSC[C@@H](C(N)=O)NC(=O)[C@H](Cc2ccccc2)NC(=O)[C@H](CCCNC(=N)N)NC(=O)[C@@H](Cc2ccccc2)NC(=O)[C@H](CCCNC(=N)N)NC(=O)C(C)(C)NC1=O) [CTX-1635]
70

Please give the measured % max activation for this binder: Ac-CGR[dF]RFC-NH2 (disulfide 1-7; SMILES CC(=O)N[C@H]1CSSC[C@@H](C(N)=O)NC(=O)[C@H](Cc2ccccc2)NC(=O)[C@H](CCCNC(=N)N)NC(=O)[C@@H](Cc2ccccc2)NC(=O)[C@H](CCCNC(=N)N)NC(=O)CNC1=O) [CTX-1638]
75

Please give the measured % max activation for this binder: Ac-R[Nle]C[4Pal][dF]RWC-NH2 (disulfide 3-8; SMILES CCCC[C@H](NC(=O)[C@H](CCCNC(=N)N)NC(C)=O)C(=O)N[C@H]1CSSC[C@@H](C(N)=O)NC(=O)[C@H](Cc2c[nH]c3ccccc23)NC(=O)[C@H](CCCNC(=N)N)NC(=O)[C@@H](Cc2ccccc2)NC(=O)[C@H](Cc2ccncc2)NC1=O) [CTX-1621]
15

Please give the measured % max activation for this binder: {CH2CO}-G[Cit][dF]RWC-NH2 (thioether N-6; SMILES N=C(N)NCCC[C@@H]1NC(=O)[C@@H](Cc2ccccc2)NC(=O)[C@H](CCCNC(N)=O)NC(=O)CNC(=O)CSC[C@@H](C(N)=O)NC(=O)[C@H](Cc2c[nH]c3ccccc23)NC1=O) [CTX-1646]
70

Please give the measured % max activation for this binder: Ac-R[Nle]C[Cit][dF]RWC-NH2 (disulfide 3-8; SMILES CCCC[C@H](NC(=O)[C@H](CCCNC(=N)N)NC(C)=O)C(=O)N[C@H]1CSSC[C@@H](C(N)=O)NC(=O)[C@H](Cc2c[nH]c3ccccc23)NC(=O)[C@H](CCCNC(=N)N)NC(=O)[C@@H](Cc2ccccc2)NC(=O)[C@H](CCCNC(N)=O)NC1=O) [CTX-1607]
47

Please give the measured % max activation for this binder: {CH2CO}-[dA]R[dF]RFC-NH2 (thioether N-6; SMILES C[C@H]1NC(=O)CSC[C@@H](C(N)=O)NC(=O)[C@H](Cc2ccccc2)NC(=O)[C@H](CCCNC(=N)N)NC(=O)[C@@H](Cc2ccccc2)NC(=O)[C@H](CCCNC(=N)N)NC1=O) [CTX-1657]
30

Please give the measured % max activation for this binder: Ac-RC[Aib][Orn][dF]RFC-NH2 (disulfide 2-8; SMILES CC(=O)N[C@@H](CCCNC(=N)N)C(=O)N[C@H]1CSSC[C@@H](C(N)=O)NC(=O)[C@H](Cc2ccccc2)NC(=O)[C@H](CCCNC(=N)N)NC(=O)[C@@H](Cc2ccccc2)NC(=O)[C@H](CCCN)NC(=O)C(C)(C)NC1=O) [CTX-1602]
80

Please give the measured % max activation for this binder: Ac-R[Nle]CR[dF]R[dW]C-NH2 (disulfide 3-8) [CTX-1616]
78

Please give the measured % max activation for this binder: {CH2CO}-[dA][Cit][dF]RWC-NH2 (thioether N-6; SMILES C[C@H]1NC(=O)CSC[C@@H](C(N)=O)NC(=O)[C@H](Cc2c[nH]c3ccccc23)NC(=O)[C@H](CCCNC(=N)N)NC(=O)[C@@H](Cc2ccccc2)NC(=O)[C@H](CCCNC(N)=O)NC1=O) [CTX-1643]
81

Please give the measured % max activation for this binder: Ac-RC[dA][Cit][dF]R[dW]C-NH2 (disulfide 2-8) [CTX-1286]
24

Please give the measured % max activation for this binder: Ac-RC[dA]R[d(αMeF)]RWC-NH2 (disulfide 2-8; SMILES CC(=O)N[C@@H](CCCNC(=N)N)C(=O)N[C@H]1CSSC[C@@H](C(N)=O)NC(=O)[C@H](Cc2c[nH]c3ccccc23)NC(=O)[C@H](CCCNC(=N)N)NC(=O)[C@@](C)(Cc2ccccc2)NC(=O)[C@H](CCCNC(=N)N)NC(=O)[C@@H](C)NC1=O) [CTX-1278]
86
